- MEASUREMENT_NOTES: Metabolic stability in mouse plasma assessed as half life at 1 uM and measured upto 3 hrs by LC-MS/MS analysis
- Type: ADME, cell-free
I'd be grateful if you could share measured half-life at 1 µM for these entries.

{"columns": ["COMPOUND_STRING", "half-life at 1 µM"],
 "data": [
  ["COc1ccc(/C=C\\c2cc(OC)c(OC)c(OC)c2)cc1O", "> 3 h"]
]}

API: the following record is the query input.
Req: Which measured half-life at 1 µM value corresponds to CCn1ccc2cc(N3CCC(=O)c4c3cc(OC)c(OC)c4OC)ccc21 ?
Resp: > 3 h

----------
- MEASUREMENT_NOTES: Metabolic stability in mouse plasma assessed as compound remaining at 1 uM and measured at 3 hrs by LC-MS/MS analysis
- Assay type: ADME, cell-free
- STUDY_CONDITIONS: read-out: Stability
I'd be grateful if you could share measured remaining at 3 h, 1 µM for these entries.
Numbers only, in %.

Reference set (2 entries):
{"columns": ["COMPOUND_STRING", "READOUT_NUMBER"],
 "data": [
  ["COc1ccc(/C=C\\c2cc(OC)c(OC)c(OC)c2)cc1O", 97.8],
  ["CCn1ccc2cc(N3CCC(=O)c4c3cc(OC)c(OC)c4OC)ccc21", 105]
]}

API: the following record is the query input.
Req: Which measured remaining at 3 h, 1 µM value corresponds to CC(=O)Oc1ccc(C(c2ccc(OC(C)=O)cc2)c2ccccn2)cc1 ?
Resp: 0.003

----------
- MEASUREMENT_NOTES: Aqueous solubility of the compound by HPLC analysis
- Type: physicochemical
- STUDY_CONDITIONS: aqueous (not further specified)
I'd be grateful if you could share measured solubility for these entries.
One number for each entry, in µg/mL.

{"columns": ["MOLECULE", "READOUT_LABEL", "READOUT_NUMBER"],
 "data": [
  ["CCn1ccc2cc(N3CCC(=O)c4c3cc(OC)c(OC)c4OC)ccc21", "solubility", 6.68]
]}

Req: Which measured solubility value corresponds to COc1ccc(/C=C\c2cc(OC)c(OC)c(OC)c2)cc1O [COMBRETASTATIN A4] ?
Resp: 0.96

----------
- MEASUREMENT_NOTES: Antiproliferative activity against human HFL1 cells assessed as inhibition of cell growth measured after 72 hrs by MTT assay
- Assay type: toxicity, cell-based
READOUT_LABEL: IC50 at 72 h (nM)
Numbers only, in nM.

Reference set (10 entries):
{"columns": ["COMPOUND_STRING", "IC50 at 72 h (nM)"],
 "data": [
  ["COc1cc2c(c(OC)c1OC)C(=O)CCN2c1ccc2cc[nH]c2c1", 9750],
  ["COc1ccc(N2CCC(=O)c3c2cc(OC)c(OC)c3OC)cc1O", 284],
  ["COc1ccc(N2CCC(=O)c3cc(OC)c(OC)cc32)cc1O", 3300],
  ["COc1cc2c(c(OC)c1OC)C(=O)CCN2c1cccc2c1ccn2C", 99],
  ["CCn1ccc2cc(N3CCC(=O)c4c3cc(OC)c(OC)c4OC)ccc21", 62],
  ["COc1ccc(N2CCCc3c2cc(OC)c(OC)c3OC)cc1O", 2660],
  ["COc1cc2c(c(OC)c1OC)C(=O)CCN2c1ccc2ccn(C)c2c1", 2760],
  ["COc1cc2c(c(OC)c1OC)C(=O)CCN2c1ccc2[nH]ccc2c1", 2980],
  ["COc1ccc(N2CCC(=O)c3c2cc(OC)c(OC)c3OC)cc1", 370],
  ["COc1cc2c(c(OC)c1OC)C(=O)CCN2c1ccc2c(c1)OCCO2", 303]
]}

Parameter requested: IC50 at 72 h. Apply to each item below.
1. COc1cc2c(c(OC)c1OC)C(=O)CCN2c1ccc2c(ccn2C)c1
2. COc1ccc(/C=C\c2cc(OC)c(OC)c(OC)c2)cc1O

Resp:
1. 102
2. 91
